Target: Bromodomain-containing protein 3 [306-416] (Homo sapiens, UniProt Q15059)
Construct: 306-416
Sequence (Q15059 306-416): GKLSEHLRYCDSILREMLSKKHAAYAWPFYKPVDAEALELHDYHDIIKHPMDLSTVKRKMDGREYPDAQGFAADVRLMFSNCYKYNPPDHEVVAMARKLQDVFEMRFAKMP
Experiment: Bromodomains Assay for DiscoveRx Gene Symbol
# Ki values compiled below
Report only the number, with the unit nM understood.

Cc1sc2c(c1C)C(c1ccc(Cl)cc1)=NC(CC(=O)NCCOCCOCCOCCOCCOCCOCCOCCNC(=O)C[C@@H]1N=C(c3ccc(Cl)cc3)c3c(sc(C)c3C)-n3c(C)nnc31)c1nnc(C)n1-2 (some centres not stated)	0.07

For the next question, use this molecule.
// Input: `COC(=O)C[C@@H]1N=C(c2ccc(Cl)cc2)c2c(sc(C(=O)NCCOCCNC(=O)C[C@@H]3N=C(c4ccc(Cl)cc4)c4c(sc(C)c4C)-n4c(C)nnc43)c2C)-n2c(C)nnc21` . Output its Ki only. 0.0027

----------
Biological target: Bromodomain-containing protein 4 [44-168] (Human, UniProt O60885)
Construct: 44-168
Assay: AlphaScreen BRD Binding Assay
Conditions: pH 7.5; 25 °C
value_kind: IC50 (nM)
Write it as a number; the unit nM goes unstated.

Worked set:
COc1cc2c(cc1-c1c(C)noc1C)ncc1c2n([C@H](C)c2ccccn2)c(=O)n1CC(=O)NCCOCCOCCOCCOCCNC(=O)Cn1c(=O)n([C@@H](C)c2ccccn2)c2c3cc(OC)c(-c4c(C)noc4C)cc3ncc21 [IBETx2-PEG4 (33)]	73.7
COC(=O)CC1N=C(c2ccc(Cl)cc2)c2c(sc(C(=O)NCCOCCNC(=O)Cn3c(=O)n([C@H](C)c4ccccn4)c4c5cc(OC)c(-c6c(C)noc6C)cc5ncc43)c2C)-n2c(C)nnc21 (stereo partly drawn) [2S+IBET-PEG1 (24)]	18.1

Let's switch to this compound now.
Please give measured IC50 of the following entry: COC(=O)C[C@@H]1N=C(c2ccc(Cl)cc2)c2c(sc(C(=O)NCCOCCOCCOCCNC(=O)C[C@@H]3N=C(c4ccc(Cl)cc4)c4c(sc(C)c4C)-n4c(C)nnc43)c2C)-n2c(C)nnc21 [(6S+2S)-PEG3 (9)] 2.25

----------
Target: Bromodomain-containing protein 4 [44-168,333-460] (Homo sapiens, UniProt O60885)
Construct: 44-168,333-460
Assay: BROMOscan Assay
Define the label as 1.0 when Kd is strictly less than 8 pM and as 0.0 in all remaining cases.

Reference set, count: 4
COC(=O)C[C@@H]1N=C(c2ccc(Cl)cc2)c2c(sc(C(=O)NCCNC(=O)C[C@@H]3N=C(c4ccc(Cl)cc4)c4c(sc(C)c4C)-n4c(C)nnc43)c2C)-n2c(C)nnc21	0.0
COC(=O)C[C@@H]1N=C(c2ccc(Cl)cc2)c2c(sc(C(=O)NCCOCCOCCOCCOCCNC(=O)C[C@@H]3N=C(c4ccc(Cl)cc4)c4c(sc(C)c4C)-n4c(C)nnc43)c2C)-n2c(C)nnc21	1.0
COC(=O)C[C@@H]1N=C(c2ccc(Cl)cc2)c2c(sc(C(=O)NCCOCCOCCOCCOCCOCCOCCOCCNC(=O)C[C@@H]3N=C(c4ccc(Cl)cc4)c4c(sc(C)c4C)-n4c(C)nnc43)c2C)-n2c(C)nnc21	1.0
COC(=O)C[C@@H]1N=C(c2ccc(Cl)cc2)c2c(sc(C(=O)NCCOCCOCCNC(=O)C[C@@H]3N=C(c4ccc(Cl)cc4)c4c(sc(C)c4C)-n4c(C)nnc43)c2C)-n2c(C)nnc21	0.0

Now examine the next entry.
Would you kindly verify if Kd of `COC(=O)C[C@@H]1N=C(c2ccc(Cl)cc2)c2c(sc(C(=O)NCCOCCOCCOCCNC(=O)C[C@@H]3N=C(c4ccc(Cl)cc4)c4c(sc(C)c4C)-n4c(C)nnc43)c2C)-n2c(C)nnc21` is strictly less than 8 pM? 1.0

----------
Biological target: Bromodomain testis-specific protein [21-137,251-382] (Homo sapiens)
Construct: 21-137,251-382
Test: Bromodomains Assay for DiscoveRx Gene Symbol
value_kind: Ki (nM)
Reply numerically in nM, unit not repeated.

Complete the entry with Ki for `COC(=O)C[C@@H]1N=C(c2ccc(Cl)cc2)c2c(sc(C(=O)NCCOCCNC(=O)C[C@@H]3N=C(c4ccc(Cl)cc4)c4c(sc(C)c4C)-n4c(C)nnc43)c2C)-n2c(C)nnc21` 0.42

----------
Target: Bromodomain testis-specific protein [251-382] (Homo sapiens, UniProt Q58F21)
Construct: 251-382
Test: Bromodomains Assay for DiscoveRx Gene Symbol
value_kind: Kd (nM)
The answer is to be given in nM; state only the numeric part.

Assign Kd to the following record: `COC(=O)C[C@@H]1N=C(c2ccc(Cl)cc2)c2c(sc(C(=O)NCCOCCNC(=O)C[C@@H]3N=C(c4ccc(Cl)cc4)c4c(sc(C)c4C)-n4c(C)nnc43)c2C)-n2c(C)nnc21` 0.066

----------
Target: Bromodomain testis-specific protein [21-137] (Homo sapiens, UniProt Q58F21)
Construct: 21-137
Assay: AlphaScreen BRD Binding Assay
Conditions: pH 7.5; 25 °C
pIC50: −log10 of the molar value.
Class (by pIC50) -- lower band = under 7, central band = from 7 up to 8, upper band = 8 and over

COC(=O)CC1N=C(c2ccc(Cl)cc2)c2c(sc(C(=O)NCCOCCNC(=O)Cn3c(=O)n([C@H](C)c4ccccn4)c4c5cc(OC)c(-c6c(C)noc6C)cc5ncc43)c2C)-n2c(C)nnc21 (stereo partly drawn)	central band
COC(=O)CC1N=C(c2ccc(Cl)cc2)c2c(sc(C(=O)NCCOCCOCCNC(=O)Cn3c(=O)n([C@H](C)c4ccccn4)c4c5cc(OC)c(-c6c(C)noc6C)cc5ncc43)c2C)-n2c(C)nnc21 (stereo partly drawn)	central band
COC(=O)CC1N=C(c2ccc(Cl)cc2)c2c(sc(C(=O)NCCNC(=O)Cn3c(=O)n([C@H](C)c4ccccn4)c4c5cc(OC)c(-c6c(C)noc6C)cc5ncc43)c2C)-n2c(C)nnc21 (stereo partly drawn)	lower band
COc1cc2c(cc1-c1c(C)noc1C)ncc1c2n([C@H](C)c2ccccn2)c(=O)n1CC(=O)NCCOCCOCCOCCNC(=O)C[C@@H]1N=C(c2ccc(Cl)cc2)c2c(sc(C)c2C)-n2c(C)nnc21	upper band
COC(=O)C[C@@H]1N=C(c2ccc(Cl)cc2)c2c(sc(C(=O)NCCOCCOCCOCCOCCNC(=O)C[C@@H]3N=C(c4ccc(Cl)cc4)c4c(sc(C)c4C)-n4c(C)nnc43)c2C)-n2c(C)nnc21	upper band

Input `COC(=O)C[C@@H]1N=C(c2ccc(Cl)cc2)c2c(sc(C(=O)NCCNC(=O)C[C@@H]3N=C(c4ccc(Cl)cc4)c4c(sc(C)c4C)-n4c(C)nnc43)c2C)-n2c(C)nnc21` ; output its category upper band

Into which category would you place COC(=O)CC1N=C(c2ccc(Cl)cc2)c2c(sc(C(=O)NCCOCCOCCOCCNC(=O)Cn3c(=O)n([C@H](C)c4ccccn4)c4c5cc(OC)c(-c6c(C)noc6C)cc5ncc43)c2C)-n2c(C)nnc21 (stereo partly drawn) ? central band

Using the reported pIC50, which band applies to `COC(=O)C[C@@H]1N=C(c2ccc(Cl)cc2)c2c(sc(C(=O)NCCOCCNC(=O)C[C@@H]3N=C(c4ccc(Cl)cc4)c4c(sc(C)c4C)-n4c(C)nnc43)c2C)-n2c(C)nnc21` ? upper band

Into which category would you place `COc1cc2c(cc1-c1c(C)noc1C)ncc1c2n([C@H](C)c2ccccn2)c(=O)n1CC(=O)NCCOCCNC(=O)Cn1c(=O)n([C@@H](C)c2ccccn2)c2c3cc(OC)c(-c4c(C)noc4C)cc3ncc21` ? lower band

Returns: class label. Input: COC(=O)CC1N=C(c2ccc(Cl)cc2)c2c(sc(C(=O)NCCOCCOCCOCCOCCNC(=O)Cn3c(=O)n([C@H](C)c4ccccn4)c4c5cc(OC)c(-c6c(C)noc6C)cc5ncc43)c2C)-n2c(C)nnc21 (stereo partly drawn) central band

Hi, small favor: classify `COC(=O)C[C@@H]1N=C(c2ccc(Cl)cc2)c2c(sc(C(=O)NCCOCCOCCNC(=O)C[C@@H]3N=C(c4ccc(Cl)cc4)c4c(sc(C)c4C)-n4c(C)nnc43)c2C)-n2c(C)nnc21` by its pIC50 when you get a moment. upper band

Record `COC(=O)C[C@@H]1N=C(c2ccc(Cl)cc2)c2c(sc(C(=O)NCCOCCOCCOCCNC(=O)C[C@@H]3N=C(c4ccc(Cl)cc4)c4c(sc(C)c4C)-n4c(C)nnc43)c2C)-n2c(C)nnc21` — which class? upper band

----------
Target: Bromodomain-containing protein 4 [44-168] (Human)
Construct: 44-168
Test: AlphaScreen BRD Binding Assay
Settings: pH 7.5; 25 °C
pIC50: −log10 of the molar value.
Threshold check on pIC50: at or above 8 gives class 1, strictly below gives class 0.

COC(=O)CC1N=C(c2ccc(Cl)cc2)c2c(sc(C(=O)NCCNC(=O)Cn3c(=O)n([C@H](C)c4ccccn4)c4c5cc(OC)c(-c6c(C)noc6C)cc5ncc43)c2C)-n2c(C)nnc21 (stereo not given in full)	class 0
COC(=O)CC1N=C(c2ccc(Cl)cc2)c2c(sc(C(=O)NCCOCCOCCNC(=O)Cn3c(=O)n([C@H](C)c4ccccn4)c4c5cc(OC)c(-c6c(C)noc6C)cc5ncc43)c2C)-n2c(C)nnc21 (stereo not given in full)	class 1
COC(=O)C[C@@H]1N=C(c2ccc(Cl)cc2)c2c(sc(C(=O)NCCNC(=O)C[C@@H]3N=C(c4ccc(Cl)cc4)c4c(sc(C)c4C)-n4c(C)nnc43)c2C)-n2c(C)nnc21	class 1
COc1cc2c(cc1-c1c(C)noc1C)ncc1c2n([C@H](C)c2ccccn2)c(=O)n1CC(=O)NCCOCCNC(=O)Cn1c(=O)n([C@@H](C)c2ccccn2)c2c3cc(OC)c(-c4c(C)noc4C)cc3ncc21	class 0
COc1cc2c(cc1-c1c(C)noc1C)ncc1c2n([C@H](C)c2ccccn2)c(=O)n1CC(=O)NCCNC(=O)Cn1c(=O)n([C@@H](C)c2ccccn2)c2c3cc(OC)c(-c4c(C)noc4C)cc3ncc21	class 0

Is pIC50 at least 8? Consider `COC(=O)C[C@@H]1N=C(c2ccc(Cl)cc2)c2c(sc(C(=O)NCCOCCOCCOCCOCCNC(=O)C[C@@H]3N=C(c4ccc(Cl)cc4)c4c(sc(C)c4C)-n4c(C)nnc43)c2C)-n2c(C)nnc21` class 1

Check if pIC50 >= 8 (inclusive). Item: `COc1cc2c(cc1-c1c(C)noc1C)ncc1c2n([C@H](C)c2ccccn2)c(=O)n1CC(=O)NCCOCCOCCOCCNC(=O)C[C@@H]1N=C(c2ccc(Cl)cc2)c2c(sc(C)c2C)-n2c(C)nnc21` class 0

# bool: pIC50 of COC(=O)CC1N=C(c2ccc(Cl)cc2)c2c(sc(C(=O)NCCOCCOCCOCCOCCOCCOCCOCCNC(=O)Cn3c(=O)n([C@H](C)c4ccccn4)c4c5cc(OC)c(-c6c(C)noc6C)cc5ncc43)c2C)-n2c(C)nnc21 (stereo not given in full) >= 8 class 0

Is pIC50 at least 8? Consider `COc1cc2c(cc1-c1c(C)noc1C)ncc1c2n([C@H](C)c2ccccn2)c(=O)n1CC(=O)NCCOCCOCCOCCOCCNC(=O)C[C@@H]1N=C(c2ccc(Cl)cc2)c2c(sc(C)c2C)-n2c(C)nnc21` class 0

Does the reported pIC50 for `COC(=O)C[C@@H]1N=C(c2ccc(Cl)cc2)c2c(sc(C(=O)NCCOCCOCCNC(=O)C[C@@H]3N=C(c4ccc(Cl)cc4)c4c(sc(C)c4C)-n4c(C)nnc43)c2C)-n2c(C)nnc21` fall at or above the 8 mark? class 1
